Test: Measurement of particle diameter distribution (laser diffraction, dry measurement, Mastersizer 2000)
Assay type: physicochemical
Details: dry measurement, volume basis
Returns T if the recorded Particle Diameter Distribution D90 is greater than or equal to 100 μm, and F otherwise.

Below, 3 compounds whose answers are already recorded.
API: above_or_equal(metric=Particle Diameter Distribution D90, cutoff=100 μm) for item O=C1c2ccccc2C(=O)N1[C@@H]1CC[C@@]2(O)[C@H]3Cc4ccc(O)c5c4[C@@]2(CCN3CC2CC2)[C@H]1O5 [Comparative Example 5]
T

Hi, just wondering whether O=C1c2ccccc2C(=O)N1[C@@H]1CC[C@@]2(O)[C@H]3Cc4ccc(O)c5c4[C@@]2(CCN3CC2CC2)[C@H]1O5 [Example 2] shows Particle Diameter Distribution D90 of 100 μm or higher.
F

Answer whether Particle Diameter Distribution D90 of O=C1c2ccccc2C(=O)N1[C@@H]1CC[C@@]2(O)[C@H]3Cc4ccc(O)c5c4[C@@]2(CCN3CC2CC2)[C@H]1O5 [Example 9] is greater than or equal to 100 μm.
F

Next:
Is reported Particle Diameter Distribution D90 greater than or equal to 100 μm here: O=C1c2ccccc2C(=O)N1[C@@H]1CC[C@@]2(O)[C@H]3Cc4ccc(O)c5c4[C@@]2(CCN3CC2CC2)[C@H]1O5 [Comparative Example 1]
T

Given O=C1c2ccccc2C(=O)N1[C@@H]1CC[C@@]2(O)[C@H]3Cc4ccc(O)c5c4[C@@]2(CCN3CC2CC2)[C@H]1O5 [Example 8] , state whether its Particle Diameter Distribution D90 is at least 100 μm.
F

Check if Particle Diameter Distribution D90 >= 100 μm (inclusive). Item: O=C1c2ccccc2C(=O)N1[C@@H]1CC[C@@]2(O)[C@H]3Cc4ccc(O)c5c4[C@@]2(CCN3CC2CC2)[C@H]1O5 [Example 7]
F

====

Test: Measurement of particle diameter distribution (laser diffraction, dry measurement, Mastersizer 2000)
Format: physicochemical
Settings: dry measurement, volume basis
Method: In the present invention, D50 and D90 are indices for defining particle diameter distribution. Particle diameter distribution is usually called particle size distribution. Particles are divided into groups along with their size with appropriate intervals, and weight (volume) or particle number of the particles belonging to each group is measured to obtain the particle number (frequency) of each group. […] In the present invention, frequency was calculated based on volume. […]
Assay Metric: Particle Diameter Distribution D50 (μm)
Answer with a number only, understood to be in μm.

Which Particle Diameter Distribution D50 reading was recorded for the molecule O=C1c2ccccc2C(=O)N1[C@@H]1CC[C@@]2(O)[C@H]3Cc4ccc(O)c5c4[C@@]2(CCN3CC2CC2)[C@H]1O5 [Example 7] ?
5.67

Please look up its Particle Diameter Distribution D50: O=C1c2ccccc2C(=O)N1[C@@H]1CC[C@@]2(O)[C@H]3Cc4ccc(O)c5c4[C@@]2(CCN3CC2CC2)[C@H]1O5 [Comparative Example 1]
32.4

Recorded Particle Diameter Distribution D50 of O=C1c2ccccc2C(=O)N1[C@@H]1CC[C@@]2(O)[C@H]3Cc4ccc(O)c5c4[C@@]2(CCN3CC2CC2)[C@H]1O5 [Example 1] , please.
4.25
